test.protocol: Oral bioavailability in cynomolgus monkey at 1 mg/kg
Format: ADME, organism-based, Macaca fascicularis
assay.conditions: in vivo
measured.metric: bioavailability (%)
Just the number please, in %, no unit attached.

Q: Which value of bioavailability has been reported for COc1ccccc1CC[C@@H]1CCc2cc([C@H]3CC[C@](N)(CO)C3)ccc2C1 in the records?
Result: 76

----------
test.protocol: Drug metabolism in Balb/c mouse blood assessed as concentration of parent compound at 15 mg/kg, po measured at 24 hrs by LC-MS/MS analysis
Type: ADME, organism-based
assay.conditions: read-out: Ct
measured.metric: concentration at 24 h (nM)
State just the number; it will be interpreted in nM.

Q: Given the molecule N[C@]1(CO)CC[C@H](c2ccc3c(c2)CC[C@@H](CCc2ccccc2)C3)C1 , what is its reported concentration at 24 h?
Result: 160

----------
test.protocol: Drug metabolism in Balb/c mouse blood assessed as concentration of parent compound at 1 mg/kg, po measured at 24 hrs by LC-MS/MS analysis
Type: ADME, organism-based
assay.conditions: in vivo, 1 mg/kg, 24 h, 1 mg/kg, 24 h, read-out: Ct
measured.metric: concentration (nM)
API: value field is a number in nM; no unit string.

Q: Suppose we examine the molecule N[C@]1(CO)CC[C@H](c2ccc3c(c2)CCC(c2ccccc2)C3)C1 (stereo in doubt; 8b) ; what concentration value has been reported?
Result: 16

----------
ED50 listing for selected compounds.
System: Rattus norvegicus
test.protocol: Reduction in circulating lymphocytes in Lewis rat blood assessed as effective dose after oral dosing measured at 24 hrs by hematology analyzer based analysis
Assay type: functional
Give a bare numeral; the unit mg/kg is implied.

These solved cases illustrate the format of a correct answer.
COc1ccccc1CC[C@@H]1CCc2cc([C@H]3CC[C@](N)(CO)C3)ccc2C1 = 0.1
COc1ccc(CC[C@H]2CCc3cc([C@H]4CC[C@](N)(CO)C4)ccc3C2)cc1 = 0.6
CCCCCCCCc1ccc(CCC(N)(CO)CO)cc1 = 0.1

Q: Fill in the blank: the reported ED50 of COc1cccc(CC[C@@H]2CCc3cc([C@H]4CC[C@](N)(CO)C4)ccc3C2)c1 is ____.
Result: 0.05

Q: Item under review: COc1ccccc1CC[C@H]1CCc2cc([C@H]3CC[C@](N)(CO)C3)ccc2C1 . Reported ED50?
Result: 0.05

Q: What measured ED50 goes with COc1cccc(CC[C@H]2CCc3cc([C@H]4CC[C@](N)(CO)C4)ccc3C2)c1 ?
Result: 0.05

Q: Reported ED50 for COc1ccc(CC[C@@H]2CCc3cc([C@H]4CC[C@](N)(CO)C4)ccc3C2)cc1 : what is it?
Result: 0.5

----------
test.protocol: Metabolic stability in human liver microsomes assessed as half-life measured upto 120 mins in presence of NADPH-generating system by LC/MS/MS analysis
Format: ADME, Microsome
measured.metric: half-life (h)
Give your result in h as a bare value.

Q: What does the record list as half-life for COc1ccccc1CC[C@@H]1CCc2cc([C@H]3CC[C@](N)(CO)C3)ccc2C1 [UDIFITIMOD] ?
Result: 4.03

----------
Reported Activity by item:
test.protocol: Cardiotoxicity in human iPSC derived cardiomyocytes assessed as reduction in beating rate at 10 nM measured over 2 hrs by multi-electrode array relative to control
Format: toxicity, cell-based
Design: scale not given: the % may be the effect or the level left
assay.conditions: stem cell-derived cardiomyocyte, 0.01 µM
Expressed in %, but write only the number.

Illustrative cases are given below, each with its answer.
CCCCCCCCc1ccc(CC[C@](N)(CO)COP(=O)(O)O)cc1 = 62
COc1ccccc1CC[C@H]1CCc2cc([C@H]3CC[C@](N)(COP(=O)(O)O)C3)ccc2C1 = 18

Q: Look up Activity for this molecule: COc1ccccc1CC[C@@H]1CCc2cc([C@H]3CC[C@](N)(COP(=O)(O)O)C3)ccc2C1
Result: 27

Q: GET /values?readout=Activity&item= COc1cccc(CC[C@@H]2CCc3cc([C@H]4CC[C@](N)(COP(=O)(O)O)C4)ccc3C2)c1
Result: 31

Q: Look up Activity for this molecule: COc1cccc(CC[C@H]2CCc3cc([C@H]4CC[C@](N)(COP(=O)(O)O)C4)ccc3C2)c1
Result: 20

Q: GET /values?readout=Activity&item= O=C(O)C[C@H]1CCCN(C[C@@H](O)c2ccc(-c3noc(-c4onc(-c5ccccc5)c4C(F)(F)F)n3)cc2)C1
Result: 57

Q: Given the molecule COc1ccc(CC[C@@H]2CCc3cc([C@H]4CC[C@](N)(COP(=O)(O)O)C4)ccc3C2)cc1 , what is its reported Activity?
Result: 35
